Experiment: NCI Yeast Anticancer Drug Screen. Data for the mlh1 rad18 strain (AID 175)
Details: S. cerevisiae mlh1 rad18 strain growth inhibition; at 50.0 µM; active compounds read high
This is part of a sample that, as a whole, favours compounds with a hit. Of some 79,000 tested, about 15% had one in any assay.
RESULT TYPE: growth inhibition (%)
Reply numerically in %, unit not repeated.

# get_value(readout='growth inhibition', item= CCOC(=O)NNC(=O)C1CSC(c2ccccc2)N1C(C)=O (configuration not stated) )
-22.3

Proceed to CCOc1ccc(NC(=O)CC2SC(=Nc3ccc(C)cc3C)NC2=O)cc1 (configuration not stated)
28.8

Same question, "CCCCN=C(C)CC(=O)CC(=O)c1ccccc1" this time
33.9

* * *

Experiment: NCI Yeast Anticancer Drug Screen. Data for the cln2 rad14 strain (AID 165);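 further: 0% = growth equal to vehicle treated cultures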
Conditions: S. cerevisiae cln2 rad14 strain, at 50.0 µM, active compounds read high
Compounds without any hit were thinned out: in the full panel of roughly 79,000, 15% have a hit. *1 amine or outer side, *2 acyl side, *3 side chain or, on linkers, in order; H or OH if unused. Where a SMILES comes first, the peptide text is derived from it. [ ]: non-standard residue; d: D form. X8 = C=CCC(O[*:1])C(=O)[*:2]; NMeV = CN[CH](C(=O)O)C(C)C; NMeA = CN[CH](C)C(=O)O; βAla = NCCC(=O)O
Quick rule for you: growth inhibition at 20% or higher means true (1), lower means false (0).

Check out these entries, answers already filled in.
COc1cc2c(c([N+](=O)[O-])c1)NC(=O)CC(C)S2 (stereo not drawn) : false (0)
CC(C)(C)C(=O)/C=C(\OB(F)F)C(C)(C)C : true (1)
CCOC(=O)c1ccc(C(=O)OCC)n1-c1cc2cc(c1)CSCc1cc(cc(-n3c(C(=O)OCC)ccc3C(=O)OCC)c1)CSC2 : false (0)
CCOc1c(Cc2ccccc2)c(=O)n2c3ccccc3n(CC)c2c1C#N : false (0)
O=C(O)/C=C/C(=O)Nc1cccc2c1Cc1ccccc1-2 : false (0)
CN1C2=C(CC3=C1CC(C)(C)CC3=O)C(=O)CC(C)(C)C2 : false (0)
C=CCC1OC(=O)CCNC(=O)C(C)N(C)C(=O)C(C(C)C)N(C)C(=O)C(C(C)CC)NC(=O)C2CCCN2C1=O (stereo not drawn) (cyclo([X8]PI[NMeV][NMeA][βAla]); configuration not given here) : false (0)
CCOC1=C/C(=N\NC(N)=O)CCC1 : true (1)

Could you verify whether the entry "COC(=O)NC(=Nc1ccc(Oc2ccccc2)cc1NC=O)NC(=O)OC" shows growth inhibition of no less than 20%?
true (1)

Now this one: Cc1cc(Cl)ccc1NC(=O)/C(=N\NC(C)(C)C)C(C#N)c1nc(-c2ccc([N+](=O)[O-])cc2)cs1 (stereo not drawn)
true (1)

Can you check C=CC1(C(=O)O)CCC(C(C)(C)C)CC1 (stereo not drawn) next?
true (1)

Same thing, different molecule: "CC(C)=C(Cl)c1c(C)cc(C)c(CC(N)=O)c1C"
false (0)

Subsequent entry: "Oc1cccc(O)c1"
false (0)

* * *

Test: NCI Yeast Anticancer Drug Screen. Data for the mlh1 rad18 strain (AID 175)
Conditions: S. cerevisiae mlh1 rad18 strain growth inhibition; at 50.0 µM; active compounds read high
This is part of a sample that, as a whole, favours compounds with a hit. Of some 79,000 tested, about 15% had one in any assay.
compounds and their reported growth inhibition
Lab book: enter the figure in %, no units written.

NC(=S)N/N=C/c1ccc(F)cn1 : 11.9
CC(C)(C)[Si](C)(C)OCCCC#CCO : 24.3

For the compound shown here, "O=c1[nH]c(NCc2ccncc2)nc2nc[nH]c12" , give the reported growth inhibition.
-52

Also COC(=O)C1(C)CCCC2(C)C3=CC(O)C4(C(C)C)OC4C3(O)CCC12 (centres undefined) , if possible.
-8.2

Next up: O/N=C1\C(=C\c2ccc3c(c2)OCCO3)CCCC1C(NO)c1ccc2c(c1)OCCO2 (centres undefined)
6.15

Cool, now "CCOc1ccc2nc(N=NC(C(C)=O)C(C)=O)sc2c1"
15.9

What do you get for CCCCC(=O)C(CC)(c1ccccc1)N(C)C (centres undefined) ?
-17.9

Would you kindly repeat that for O=S(=O)(O)CC(NCc1ccccc1)c1ccccc1 (centres undefined) ?
-5

Again, but for "COC(=O)/C(=C\SCc1ccccc1)NC(C)=O"
-20.8

Item: "COc1cc(CCNC2=CC(=O)c3ncccc3C2=O)ccc1O"
14.3

* * *

Assay: NCI Yeast Anticancer Drug Screen. Data for the bub3 strain (AID 167)
Details: S. cerevisiae bub3 mutant strain, at 50.0 µM, active compounds read high
About 79,000 compounds went through this panel and 15% of them were active in at least one assay; those are over-represented in the sample as a whole.
# Lookup of reported growth inhibition keyed by entry
Provide the reading as a plain figure in %.

Cc1ccccc1-n1c(=S)[nH]c2c(sc(=O)n2-c2ccccc2C)c1=O : 0.1

What measured growth inhibition goes with "C1C[OH+]CCNCC[OH+]CC[OH+]CCN1.[Cl-].[Pt+4]" ?
3.5

Entry "[N-]=[N+]=Nc1ccc(NCCCCCC(=O)ON2C(=O)CCC2=O)c([N+](=O)[O-])c1" please
4.7

Next entry: O=C1/C(=C/c2ccc(O)cc2)CCC1CNc1ccc(Cl)cc1 (stereo not given)
5.55

* * *

Test: NCI Yeast Anticancer Drug Screen. Data for the mlh1 rad18 strain (AID 175)
Details: S. cerevisiae mlh1 rad18 strain growth inhibition; at 50.0 µM; active compounds read high
Compounds without any hit were thinned out: in the full panel of roughly 79,000, 15% have a hit. Active and inactive are the calls of the source. No stated cut-off is given here; in the data, active means growth inhibition above about 70%; inactive means the rest.
RESULT TYPE: growth inhibition

Field: example entries. Status: answers known.
C/C=C/CNc1ccc(C)cc1 : 22.8% (inactive)
CCCC(=O)OCCOc1ccccc1 : 2.5% (inactive)
CC1=NN(C(=O)CC(=O)Nc2cccc(Cl)c2)C(=O)C1N=Nc1ccc(S(=O)(=O)c2ccc(N=NC3C(=O)N(C(=O)CC(=O)Nc4cccc(Cl)c4)N=C3C)cc2)cc1 (stereo unspecified) : 22.4% (inactive)
Oc1[nH]c2ccccc2c1N=NC(=S)Nc1ccccc1Cl : 26.2% (inactive)
CCN(CC(=O)O)C(=O)c1cccnc1 : -6.4% (inactive)
CCOC1(OCC)C([N+](=O)[O-])=CC(=[N+]([O-])O)C=C1[N+](=O)[O-] : -21.2% (inactive)
Cc1ccc(-c2nc3ccccc3c(=O)o2)cc1 : 14.3% (inactive)
O=C(O)CCCCCCc1ccc2ccccc2n1 : -3.55% (inactive)

Sample "O=C(O)/C=C\C(=O)Nc1ccc(C(=O)NCC(=O)O)cc1" — what was its growth inhibition?
-7.05% (inactive)

Try the molecule "COC(=O)c1cc2c(cc1N=Cc1ccccc1Cl)OCO2"
6.35% (inactive)

Next up: "CC(C)=CCC/C(C)=C\CC/C(C)=C/CO"
-41.5% (inactive)

Try "CC1(C)Cc2c(oc3ncnc(N)c23)CS1" next.
9.2% (inactive)

Thanks! And CC(CO)CCNc1ncnc2c1ncn2CCC(=O)OC(C)(C)C (stereo unspecified) ?
-9.65% (inactive)

Next molecule up: CCOC(=O)/C=C/SCC(N)C(=O)OCC (stereo unspecified)
-4.55% (inactive)

Same again, this time with "CCOC(=O)NN1C(=O)C(=P(c2ccccc2)(c2ccccc2)c2ccccc2)C(C(=O)OC)=C1C"
-4.85% (inactive)

Try the molecule CC1(c2ccccc2)OC1(C)c1ccccc1 (stereo unspecified)
28.8% (inactive)

# repeat for C1CCC(C2CCCC[N-]2)[N-]C1.C1CCC(C2CCCC[N-]2)[N-]C1.[Cl][Ru][Cl] (stereo unspecified)
18.9% (inactive)

Another: "COc1ccc(C2C3=C(CCCC3=O)OC3=C2C(=O)CCC3)cc1"
12.7% (inactive)

How about COC(=O)C1=C(C)N(NC(N)=O)C2(N)N(NC(N)=O)C(C)=C(C(=O)OC)C12C#N (stereo unspecified) ?
-16.4% (inactive)

And then "CCCN(CCC)C(=O)c1c(Cl)c2cccnc2n2c(C)cnc12" , what is it?
31.3% (inactive)

// query: OC1CC2CCCCC2CC1Cl (stereo unspecified)
5.5% (inactive)

Could you do the same for "O=C1OC(=O)c2c(Cl)c(Cl)c(Cl)c(Cl)c21" , please?
2.5% (inactive)

What about this molecule? "C/C(=N\NC(N)=S)c1ccc(C)cc1C"
59.5% (inactive)

// repeat for NC(N)=N/N=C(/c1nc2ccc([N+](=O)[O-])cc2[nH]c1=O)C(O)c1ccco1 (stereo unspecified) and report
1.7% (inactive)

Same for "Cc1cc([N+](=O)[O-])ccc1Sc1c2ccccc2nc2ccccc12"
-18.9% (inactive)

Subsequent entry: "CCCCCCCCCCCCP(=O)(O)O"
-10.9% (inactive)

Repeat for the following molecule: "CCCCCCCCCCc1ccc(CCCCCCCCCC)cc1"
-7.9% (inactive)

Then CC(=O)NCC1(c2ccccc2)CCN(CC2COc3ccccc3O2)CC1 (stereo unspecified) ?
9.45% (inactive)

Just for reference, PubChem BioAssay (NCI) is where these values come from.
